Recorded EC50 values for a group of binders are listed next.
target: T1, Kp FimHLD
T1 chain: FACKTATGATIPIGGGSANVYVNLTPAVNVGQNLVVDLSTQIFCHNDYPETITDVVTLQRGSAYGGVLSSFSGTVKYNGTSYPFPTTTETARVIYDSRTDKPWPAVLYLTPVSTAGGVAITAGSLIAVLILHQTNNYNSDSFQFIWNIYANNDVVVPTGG
experiment summary: ELISA
measure: EC50 (µg/mL)

| binder | unit abbreviation | result |
| --- | --- | --- |
| Kp 2H07 (antibody, V domains shown) VH: EVQLQQSGPVLVKPGPSVNISCKASGFTFTDYYIHWVKQSHGKSLEWIGLVYPYSGGTYYNQKFKGKATLTVDASSSTAYMELGSLTSEDSAVYYCARLGDNFYYFDYWGQGTTLTVSS VL: QIVLTQSPTLMAASPGEKVTITCSVSSSISSSNLHWYQQKSETSPKPWIYGTSNLASGVPVRFSGSGSGTSYSLTISSMEAEDAATYYCQQWRSYPYTFGGGTKLEIKR | µg/mL | 0.0137 |
| 2G04 (antibody, V domains shown) VH: EVQLQQPGPELVKPGSSLKISCKASGYTFTDYFINWVKQRPGQGLDWIGWIFPGSGSTYYNDKFKGKATLTVDKSSSTAYMLLSSLTSEASAVYFCARWDSDSTYWYFDVWGTGTTVTVSS VL: QIVLTQSPALMAASPGEKVTITCSVNSSISSSTLHWYQQKSQTSPKPWIYGTSNLASGVPIRFSGSGSGTSYSLTISSMEAEDAATYYCQQWSTYPYTFGGGTKLEIKR | µg/mL | 0.0081 |
| Kp1 1A02 (antibody, V domains shown) VH: EVQLQQSGPVLVKPGPSMKISCKASGFTFTDYYIHWVRQSHGKSLEWIGLVSPYNGGTYYNQKFKGKATLTVDSSSSTAYMELSSLTSEDSAVYYCARLGYYGDWYYFDYWGQGTPLTVSS VL: QIVLTQSPALMATSPGEKVTITCSVSSSISSSNLNWYQQKSETSPKPWIYGTSNLASGVPVRFSGSGSGTSYSLTISSMEAEDAATYYCQQWSSYPYTFGGGTKLEIKR | µg/mL | 0.0185 |
| Kp 1C01 (antibody, V domains shown) VH: EVQLQQPGPVLVKPGPSVKISCKASGFTFTDYYMHWVKQSHGKSLEWIGLVSPYNGGTFYNQKFKGKATLTVDTSSSTAYMELNSLTSEDSAVYYCARVGNSYVHYAMDYWGQGTSVTVSS VL: QIVLTQSPALMAASPGEKVTITCSVSSSISSSNLHWYQQKSETSPKPWIYGTSNLASGVPVRFSGSGSGTSYSLTISSMEAEDAATYYCQQWSNYPYTFGGGTKLEIKR | µg/mL | 0.0125 |
| Ec F11 (antibody, V domains shown) VH: QVQLKESGPGLVAPSQSLSITCTVSGFSLTNYAISWVRQPPGKGLEWLGIIWTGGGTLYNSALKSRPSISKDNSKSQVFLKMNSLQTDDTARYYCARAYYSNYDWYFDVWDTGTTVTVSS VL: DIQMTQSPSSLSASLGDRVTISCSASQGISNYLNWYQQKPDGTVKLLIYYTSSLHSGVPSRFSGSGSGTDYSLTISNLEPEDIATYYCQQYSQVPYTFGGGTKLEIKR | µg/mL | 0.752 |
| Kp 2B06 (antibody, V domains shown) VH: EVQLQQPGAELVKPGASVKLSCKASGYTFTNYWMHWVKHRPGRGLEWIGRIDPNSGGTKYNEKFKNKATLTVDNPSSTGYMQLSSLTSEDSAVYYCTRSGYDYPDYWGQGTTLTVSS VL: DIVLTQSPASLAVSLGQRATISCRASESVEYYGTSLMQWYQQKPGQPPKVLIYAASNVDSGVPPRFSGSGSGTDFSLNFHPVEEDDIAMYFCQQSRKVPWTFGGGTKLEIKR | µg/mL | 0.0169 |
| Kp1 2E02 (antibody, V domains shown) VH: EVQLQQSGPVLVKPGPSVKISCKASGFTFTDYYIHWVKRSHGKSLEWIGLVSPYNGGTFYNQKFKGKATLTVDTSSNTAYMELTSLTSEDSAVYYCARLGVNWYFDVWGTGTTVTVSS VL: QIVLTQSPALMAASPGEKVTLTCSVSSSISSSTLHWYQQKSETSPKPWIYGTSNLASGVPVRFSGSGSGTSYSLTISSMEAEDAATYYCQQWSTYPYTFGGGTKLEIKR | µg/mL | 0.0127 |
| Ec A2 (antibody, V domains shown) VH: EVQLQQSGAEQVRPGASVKMSCKASGYTFTTYNMNWMKQTPGQGLEWIGVIYPGNGDISYNQKFKGKATLTVDKSSSTAYMQLSSLTSEDSAVYFCAREGDYGPWFAYWGQGTLVTVSA VL: QIVLTQSPAIMSASPGEKVTMTCRASSSVSSSYLHWYQQKSGASPKFWIYSTSKLASGVPARFSGSGSGTSYSLTISSVEAEDAATYYCQHYSRYPLTFGGGTKLEIKR | µg/mL | 0.0141 |
| Kp2 2C07 (antibody, V domains shown) VH: EVKLVESGEGLVKPGGSLKLSCAASGFTFSSYAMSWVRQTPEKRLDWVAYISSGGDHIYYADTVKGRFTISRDNARNTLYLQMSSLKSEDTAMYYCTRDTGYYVSRYFDVWGTGTTVTVSS VL: DIVMTQSQKFMSTSVGDRVSVTCKASQNVVTNVAWYQQKSGQSPKVVIYSASFRSSGVPDRFTGSGSGTDFTLTISNVQSEDLAEYFCHQYNSHPLTFGGGTKLEIKR | µg/mL | 0.0186 |
| Kp 2C09 (antibody, V domains shown) VH: EVMLVESGEDLVKPGGSLKLSCIASGFTFSSYAMSWVRQTPEKRLEWVAYISSGGDYIYYTDTVKGRFTISRDNARNTLFLQMSSLKSEDTAMYYCTRDTGYYVSRYFDVWGTGTTVTVSS VL: DIVMTQSQKFMSTSVGDRVSVTCKASQNVGTNVAWYQQKPGQSPKALIYSASFRNSGVPDRFTGSGSGTDFTLTISNVQSEDLAEYFCHQYNNYPLTFGGGTKLEIKR | µg/mL | 0.0101 |
